Experiment: chemical genetic growth profiling, strain panel (AID 1159580);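 also: tested at 20 µM; growth read once vehicle control cultures reached saturation at 30 °C; 1 = growth at the plate median or of vehicle wells; lower values mean less growth of the strain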
Conditions: S. cerevisiae deletion strains, growth OD, locus YIL066C, strain RNR3, hits give low values
About 2,000 (36%) of roughly 5,500 compounds were called active. Not shown: some 18% with an inconclusive outcome. The list shows a part of the results.
reportedMetric: normalized growth
When you answer, write just the number.

Below, 5 compounds whose answers are already recorded.
CC(C)(C)NCC(O)c1ccc(O)c(CO)c1 (centres undefined) ... 1.01
COC(=O)c1c(OC)cc2c(c1C)Oc1c(Cl)c(O)c(Cl)c(C)c1C(=O)O2 ... 0.899
CCCN(CCC)S(=O)(=O)c1ccc(C(=O)O)cc1 ... 0.996
CC12CCC(=O)C=C1CCC1C2[C@@H](O)CC2(C)C1CC[C@]2(O)C(=O)COP(=O)(O)O (some centres undefined) ... 1.02
CC(C)=CC1C(C(=O)O)C1(C)C (centres undefined) ... 1.02

Lookup result for COc1ccc([C@@H]2CC(=O)c3c(O)cc(O[C@@H]4O[C@H](CO[C@H]5O[C@@H](C)[C@H](O)[C@@H](O)[C@H]5O)[C@@H](O)[C@H](O)[C@H]4O)cc3O2)cc1O ; measured normalized growth: 1

Lookup result for C[n+]1ccccc1/C=N/O ; measured normalized growth: 1.01

Lookup result for COC(=O)c1c(C)c2c(c(C)c1O)OC(=O)c1c(C)c(Cl)c(O)c(Cl)c1O2 ; measured normalized growth: 0.892

Lookup result for CC(CCC(=O)O)[C@H]1CCC2C3CC[C@@H]4CC(=O)CC[C@]4(C)C3C=C[C@@]21C (some centres undefined) ; measured normalized growth: 1.02

Lookup result for CC(N=C(NC#N)Nc1ccncc1)C(C)(C)C (centres undefined) ; measured normalized growth: 1.02

Lookup result for CC(=O)Oc1ccc(O)cc1 ; measured normalized growth: 0.852

Lookup result for CNNC ; measured normalized growth: 1.01

Lookup result for CC(=O)Oc1ccc(/C=C/c2cc(OC(C)=O)cc(OC(C)=O)c2)cc1 ; measured normalized growth: 0.965

Lookup result for CCOC(=O)NNc1nncc2ccccc12 ; measured normalized growth: 0.987

Lookup result for CC(C)CCCC(C)[C@H]1CCC2C3C(=O)C=C4C[C@@H](O)CC[C@]4(C)C3CC[C@@]21C (some centres undefined) ; measured normalized growth: 1.04

Lookup result for O=C(NCO)c1cccnc1 ; measured normalized growth: 0.98

Lookup result for O=C(O)c1ccc(S(=O)(=O)N(Cl)Cl)cc1 ; measured normalized growth: 1

Lookup result for O=C(O)c1cccnc1 ; measured normalized growth: 0.982

Lookup result for C[C@H](CCC(=O)O)[C@H]1CCC2C3C(=O)CC4CC(=O)CC[C@]4(C)C3CC(=O)[C@@]21C (some centres undefined) ; measured normalized growth: 1.02
